Measured EC50, listed per entry.
- system.under.test: T1, recombinant human BCMA (ELISA antigen, construct not specified) (human, UniProt Q02223 1-54)
- T1 construct: Fc 1-51; Fc/His 1-51; Fc 4-48) was coated in these ELISAs; also called recombinant BCMA; recombinant protein
- T1 sequence: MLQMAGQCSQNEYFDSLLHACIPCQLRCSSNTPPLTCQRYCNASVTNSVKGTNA
- experiment.description: ELISA, 100 ng coated antigen
Could you give me the number in nM? Just the number is fine.

Look up EC50: anti-BCMA IgG antibody 5D5 (antibody, V domains shown, also called 5D5 WT; 5D5 antibody) VH: EVQLLESGGGLVQPGGSLRLSCAASGFTFSDYGLSWVRQAPGKGLEWVSLIDSSGSSTFYADSVKGRFTISRDNSKNTLYLQMNSLRAEDTAVYYCAKEHGLFDSWGQGTLVTVSS VL: EIVLTQSPGTLSLSPGERATLSCKASQDIDDDINWYQQKPGQAPRLLIYDASLRATGIPDRFSGSGSGTDFTLTISRLEPEDFAVYYCQQSLRTPITFGQGTKLEIKR
140

Given the binder anti-BCMA IgG antibody 5A6 (antibody, V domains shown, also called 5A6 WT; 5A6 antibody) VH: EVQLLESGGGLVQPGGSLRLSCAASGFTFSNYGVHWVRQAPGKGLEWVSYISYSGGTYYNPSLKSRFTISRDNSKNTLYLQMNSLRAEDTAVYYCARDSDDFGFDYWGQGTLVTVSS VL: QSVLTQPPSASGTPGQRVTISCQGDSLRSYYVNWYQQLPGTAPKLLIYDHSKRPTGVPDRFSGSKSGTSASLAISGLRSEDEADYYCQSYDSSTVVFGGGTKLTVLG , what is its reported EC50?
100

Proceeding to the next binder to report its EC50.
Returns the measured EC50 for the input binder. Input: anti-BCMA IgG antibody B58 (antibody, V domains shown, also called B58 antibody) VH: EVQLLESGGGLVQPGGSLRLSCAASGFTFSNYDMSWVRQAPGKGLEWVSWIYPSDSSIYYADSVKGRFTISRDNSKNTLYLQMNSLRAEDTAVYYCARGPFANKYRQFDYWGQGTLVTVSS VL: QSVLTQPPSASGTPGQRVTISCSGSSSNIGSNSVSWYQQLPGTAPKLLIYADSKRPSGVPDRFSGSKSGTSASLAISGLRSEDEADYYCGSWDYSLSGYVFGGGTKLTVL
79
